Test: JC-1 mitochondrial signal, unstimulated myeloma cells – cell-based, JC-1 fluorescence, RPMI8226, 24 h, 100 nL compound, profiling panel (AID 1169); note: test concentration not given here
Conditions: JC-1 mitochondrial potential fluorescence, higher = more signal
PROPERTY_MEASURED: z-score

- CCOC(=O)C[C@H]1[C@H](OC(=O)Cc2ccc3c(c2)OCO3)[C@@H](NC(=O)c2ccccc2)c2cc(OCCCO)ccc2N1C(=O)c1ccc2ccccc2n1: -0.156
- CCCC=C(CCC)[C@@H](NS(=O)(=O)c1cccc2cccnc12)c1ccc(C(=O)OC)cc1: 0.907
- COCC(=C=CC[C@@H](O)c1ccccc1OCCO)C[C@@H](O)COCc1ccccc1: -0.719
- C=CC[C@@]1(C(=O)NCC(O)CO)N=C(c2ccc(OCCCO)cc2)O[C@@H]1c1ccccc1 (some centres not stated): 0.49
- COc1ccc([Si](C)(C)[C@H]2[C@H](CC(=O)N3CCC[C@H]3CO)O[C@@]3(C(=O)N(Cc4ccc(N5C(=O)c6cccc7cccc5c67)cc4)c4ccccc43)[C@@H]2C)cc1: -1.1
- CCN(CC)c1ccc(N2CC=CC34O[C@@H]5/C=C\CCCOC(=O)C5[C@H]3C(=O)N(CCCCCCO)[C@@H]4C2=O)cc1 (some centres not stated): -0.25
- COCCOC(=O)N1C(=O)[C@@]2(c3cc(C#Cc4ccc(OC)cc4)ccc31)[C@H](C(=O)N1CCc3cc(OC)c(OC)cc3C1)[C@H]1C(=O)O[C@H](c3ccccc3)[C@H](c3ccccc3)N1[C@@H]2c1ccc(O)cc1: -0.185

From: PubChem BioAssay
